// provenance: patent US20080152587A1

# system.tested: T1, soluble recombinant human uPAR/His6 (R&D Systems, Cat. # 807-UK-100) (human, UniProt Q03405 23-303)
# T1 construct: range 1-303; Bought protein; also called soluble uPAR; hu-uPAR
# procedure.summary: low resolution Biacore, mAb captured by goat anti-human, hu-uPAR 312 nM;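 further: surface plasmon resonance on a CM5 chip with goat anti-human antibody surface made by amine coupling, each mAb from supernatant captured per flow cell, kinetics fitted including mass transport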

{"binder": "anti-uPAR monoclonal antibody 3.8.3 (antibody, V domains shown) VH: EVQLVESGGGLVQPGGSLRLSCAASGFTFSSYWMSWVRQAPGKGLEWVANIKQHGSEKYYVDSVKGRFTISRDNAKNSLYLQMNSLRAEDTAVYYCAREEAYYYDNSGYYWYFDLWARGTLVTVSS VL: DIQMTQSPSSVSASIGDRVTITCRASQGISSWLAWYQQKPGKTPKLLIYAASSLQSGVPSRFSGSGSGTDFTLTISSLQPEDFATYYCQQADSFPWTFGQGTKVEIK", "output.unit": "s⁻¹", "koff": "6.8e-05"}
{"binder": "anti-uPAR monoclonal antibody 1.61.1 (antibody, V domains shown) VH: EVQLVESGGGLVQPGGSLRLSCAASGFTFSSYDMHWVRQATGKGLEWVSAIGTAGDTYYPGSVKGRFTISRENAKNSLYLQMNSLRAGDTAVYYCAREGDYSNYFTRVRGVTYGMDVWGQGTTVTVSS VL: DIQMTQSPSSLSASVGDRVTITCRASQGISKYLAWFQQKPGKAPKSLIYGASSLQSGVPSKFSGSGSGTDFTLTISSLQPEDFATYYCQQYNSYPLTFGGGTKVEIK", "output.unit": "s⁻¹", "koff": 0.00025}
